// provenance: patent US7763656B2

MEASURE NAME: melting point

Recorded melting point, per entry:
COMPOUND	melting point
O=C(O)c1cccc(N2CCC(Oc3ccc(Br)cc3)C2=O)c1 (stereo not drawn) [Compound 76]	196 to 197 °C
Cc1ccc(OCC(=O)Nc2cccc(C(=O)O)c2)cc1C [Compound 1]	201 to 202 °C
O=C(COc1ccc(Nc2ccc([N+](=O)[O-])cn2)cc1)Nc1cccc(C(=O)O)c1 [Compound 63]	284 to 285 °C
COc1ccc(OC2CCN(c3cccc(C(=O)O)c3)C2=O)cc1 (stereo not drawn) [Compound 82]	198 to 201 °C
O=C(COc1ccc(Cl)c(Cl)c1)Nc1cccc(C(=O)O)c1 [Compound 12]	219 to 221 °C

Could you now look at the following compound, please?
### Prompt Reported melting point for Cc1c(F)cc(OC2CCN(c3cccc(C(=O)O)c3)C2=O)c(F)c1F (stereo not drawn) [Compound 85] : what is it?
### Response 190 to 191 °C

---

A collection of compounds and their measured melting point

COMPOUND	melting point
COc1ccc(C(=O)O)cc1NC(=O)COc1cc(C)ccc1C(C)C	253 to 255 °C
O=C(COc1ccc2c(c1)CCCC2)Nc1cccc(C(=O)O)c1	199 to 201 °C
O=C(O)c1cccc(N2CCC(Oc3ccc(Oc4ccccc4)cc3)C2=O)c1 (stereo not shown)	185 to 187 °C
O=C(COc1ccc(-c2ccccc2)cc1)Nc1cccc(C(=O)O)c1	245 to 246 °C
Cc1cc(C)nc(SCc2ccc(OCC(=O)Nc3cccc(C(=O)O)c3)cc2)n1	194 to 196 °C

### Prompt Reported melting point for CCc1cccc(OC2CCN(c3cccc(C(=O)O)c3)C2=O)c1 (stereo not shown) : what is it?
### Response 150 to 152 °C

### Prompt Reported melting point for O=C(COc1cccc(Nc2ccccc2)c1)Nc1cccc(C(=O)O)c1 : what is it?
### Response 189 to 191 °C

---

A collection of compounds and their measured melting point

COMPOUND	melting point
O=C(COc1ccc(COCCCCN2C(=O)c3ccccc3C2=O)cc1)Nc1cccc(C(=O)O)c1 [Compound 73]	95 to 100 °C
CC(C)c1ccccc1SCC(=O)Nc1cccc(C(=O)O)c1 [Compound 3]	178 to 179 °C
CCc1ccc(OC2CCN(c3cccc(C(=O)O)c3)C2=O)cc1 (stereo not drawn) [Compound 83]	194 to 195 °C
Cc1cc(OCC(=O)Nc2cccc(C(=O)[O-])c2)ccc1C(C)C.[Na+] [Compound 46]	188 to 189 °C
CCCc1ccc(OCC(=O)Nc2cccc(C(=O)O)c2)cc1 [Compound 16]	185 to 186 °C

### Prompt Reported melting point for O=C(O)c1cccc(N2CCC(Oc3ccc([N+](=O)[O-])cc3)C2=O)c1 (stereo not drawn) [Compound 81] : what is it?
### Response 178 to 180 °C

### Prompt Reported melting point for O=C(COc1ccc(CN2C(=O)c3ccccc3C2=O)cc1)Nc1cccc(C(=O)O)c1 [Compound 72] : what is it?
### Response 238 to 240 °C

### Prompt Reported melting point for O=C(O)c1cccc(N2CCC(Oc3ccc4c(c3)CCC4)C2=O)c1 (stereo not drawn) [Compound 35] : what is it?
### Response 182 to 184 °C

### Prompt Reported melting point for O=C(COc1ccc(Oc2ccccc2)cc1)Nc1cccc(C(=O)O)c1 [Compound 70] : what is it?
### Response 202 to 205 °C
